Ref: patent EP0674651B1

Reported values of IC50 for individual entries
Biological target: human type 2 5α-reductase (Homo sapiens)
Sequence (P31213 whole entry): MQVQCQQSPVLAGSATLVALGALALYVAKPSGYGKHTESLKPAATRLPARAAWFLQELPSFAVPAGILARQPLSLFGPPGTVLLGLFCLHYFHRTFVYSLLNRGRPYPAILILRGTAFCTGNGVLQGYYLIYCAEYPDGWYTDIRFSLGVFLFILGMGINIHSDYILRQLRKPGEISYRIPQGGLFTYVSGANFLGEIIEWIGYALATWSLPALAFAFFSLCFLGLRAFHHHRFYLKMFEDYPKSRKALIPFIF
Assay: 5α-reductase in vitro inhibitory activity, human type 2
Readout kind: IC50

compound=CC(C)NC(=O)N(C(=O)[C@H]1CC[C@H]2[C@@H]3CNC4=CC(=O)CC[C@]4(C)[C@H]3CC[C@]12C)C(C)C assay_target="human type 2 5α-reductase (Homo sapiens)" readout_kind=IC50 reported_value="10 to 100 nM"
compound=CC(C)(C)c1ccc(NC(=O)[C@H]2CC[C@H]3[C@@H]4CNC5=CC(=O)CC[C@]5(C)[C@H]4CC[C@]23C)c(Cl)c1 assay_target="human type 2 5α-reductase (Homo sapiens)" readout_kind=IC50 reported_value="< 10 nM"
compound="CC(NC(=O)[C@H]1CC[C@H]2[C@@H]3CNC4=CC(=O)CC[C@]4(C)[C@H]3CC[C@]12C)c1ccccc1 (stereo partly drawn)" assay_target="human type 2 5α-reductase (Homo sapiens)" readout_kind=IC50 reported_value="< 10 nM"
compound=CC(C)(CO)NC(=O)[C@H]1CC[C@H]2[C@@H]3CNC4=CC(=O)CC[C@]4(C)[C@H]3CC[C@]12C assay_target="human type 2 5α-reductase (Homo sapiens)" readout_kind=IC50 reported_value="10 to 100 nM"
compound=CC(C)(C)c1ccc(-c2ccc(C(F)(F)F)cc2NC(=O)[C@H]2CC[C@H]3[C@@H]4CNC5=CC(=O)CC[C@]5(C)[C@H]4CC[C@]23C)cc1 assay_target="human type 2 5α-reductase (Homo sapiens)" readout_kind=IC50 reported_value="< 10 nM"
compound=C[C@]12CC[C@H]3[C@@H](CNC4=CC(=O)CC[C@@]43C)[C@@H]1CC[C@@H]2C(=O)NC1(c2ccc(Cl)cc2)CCCCC1 assay_target="human type 2 5α-reductase (Homo sapiens)" readout_kind=IC50 reported_value="< 10 nM"

----------
Target: UniProt P18405
Sequence (P18405 1-259): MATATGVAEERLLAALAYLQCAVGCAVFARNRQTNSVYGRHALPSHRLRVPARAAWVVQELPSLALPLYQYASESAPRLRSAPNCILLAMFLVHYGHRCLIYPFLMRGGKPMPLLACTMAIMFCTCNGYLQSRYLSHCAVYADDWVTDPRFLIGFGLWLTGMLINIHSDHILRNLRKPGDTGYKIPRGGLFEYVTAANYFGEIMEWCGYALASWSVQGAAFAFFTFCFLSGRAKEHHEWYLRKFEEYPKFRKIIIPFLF
Assay: 5α-reductase in vitro inhibitory activity, human type 1
pIC50: −log10 of the molar value.
Reported values of pIC50 for individual entries
Readout kind: pIC50

compound=CC1=C2NC[C@H]3[C@@H]4CC[C@H](C(=O)Nc5c(C(C)C)cccc5C(C)C)[C@@]4(C)CC[C@@H]3[C@@]2(C)C=CC1=O assay_target="UniProt P18405" reported_value="7.00 to 8.00"
compound=CC(C)(C)c1ccc(NC(=O)[C@H]2CC[C@H]3[C@@H]4CNC5=CC(=O)CC[C@]5(C)[C@H]4CC[C@]23C)c(Br)c1 assay_target="UniProt P18405" reported_value="7.00 to 8.00"
compound=CC1(C)CC(NC(=O)[C@H]2CC[C@H]3[C@@H]4CNC5=CC(=O)CC[C@]5(C)[C@H]4CC[C@]23C)CC(C)(C)C1 assay_target="UniProt P18405" reported_value="< 7.00"
compound="CCC1(CC)CC1(NC(=O)[C@H]1CC[C@H]2[C@@H]3CNC4=CC(=O)CC[C@]4(C)[C@H]3CC[C@]12C)c1ccc(C(F)(F)F)cc1 (stereo partly shown)" assay_target="UniProt P18405" reported_value="> 8.00"
compound=CC1=C2NC[C@H]3[C@@H]4CC[C@H](C(=O)Nc5cc(C(C)(C)C)ccc5C(C)(C)C)[C@@]4(C)CC[C@@H]3[C@@]2(C)CCC1=O assay_target="UniProt P18405" reported_value="> 8.00"
compound=C[C@]12CC[C@H]3[C@@H](CNC4=CC(=O)CC[C@@]43C)[C@@H]1CC[C@@H]2C(=O)NC1(c2ccc(Cl)cc2)CCCCC1 assay_target="UniProt P18405" reported_value="> 8.00"
compound=CCc1cc(Br)cc(CC)c1NC(=O)[C@H]1CC[C@H]2[C@@H]3CNC4=CC(=O)CC[C@]4(C)[C@H]3CC[C@]12C assay_target="UniProt P18405" reported_value="7.00 to 8.00"
compound=C[C@]12CC[C@H]3[C@@H](CNC4=CC(=O)CC[C@@]43C)[C@@H]1CC[C@@H]2C(=O)NC(c1ccc(F)cc1)c1ccc(F)cc1 assay_target="UniProt P18405" reported_value="7.00 to 8.00"
compound=CC(C)(C)N(O)C(=O)[C@H]1CC[C@H]2[C@@H]3CNC4=CC(=O)CC[C@]4(C)[C@H]3CC[C@]12C assay_target="UniProt P18405" reported_value="7.00 to 8.00"
compound=CC(=O)NC[C@H]1CC[C@H]2[C@@H]3CNC4=CC(=O)CC[C@]4(C)[C@H]3CC[C@]12C assay_target="UniProt P18405" reported_value="< 7.00"

----------
Target: Rat Prostatic 5α-reductase
Assay: 5α-reductase in vitro inhibitory activity, rat prostatic
Conditions: read-out: IC50 Rat Prostatic; microsomes derived from prostate tissue from the rat
pIC50: −log10 of the molar value.
Reported values of pIC50 for individual entries
Readout kind: pIC50

compound=C[C@]12CC[C@H]3[C@@H](CNC4=CC(=O)CC[C@@]43C)[C@@H]1CC[C@@H]2C(=O)NCC(c1ccccc1)c1ccccc1 assay_target="Rat Prostatic 5α-reductase" reported_value="> 8.00"
compound=CCCCCCCCCCc1ccc(NC(=O)[C@H]2CC[C@H]3[C@@H]4CNC5=CC(=O)CC[C@]5(C)[C@H]4CC[C@]23C)cc1 assay_target="Rat Prostatic 5α-reductase" reported_value="> 8.00"
compound="CC(NC(=O)[C@H]1CC[C@H]2[C@@H]3CNC4=CC(=O)CC[C@]4(C)[C@H]3CC[C@]12C)C(c1ccccc1)c1ccccc1 (stereo partly drawn)" assay_target="Rat Prostatic 5α-reductase" reported_value="7.00 to 8.00"
compound=CC(C)c1cccc(C(C)C)c1NC(=O)[C@H]1CC[C@H]2[C@@H]3CNC4=CC(=O)CC[C@]4(C)[C@H]3CC[C@]12C assay_target="Rat Prostatic 5α-reductase" reported_value="> 8.00"
compound=C[C@]12CC[C@H]3[C@@H](CNC4=CC(=O)CC[C@@]43C)[C@@H]1CC[C@@H]2C(=O)NN(c1ccccc1)c1ccccc1 assay_target="Rat Prostatic 5α-reductase" reported_value="> 8.00"
compound=CC(C)c1cc(Br)c(NC(=O)[C@H]2CC[C@H]3[C@@H]4CNC5=CC(=O)CC[C@]5(C)[C@H]4CC[C@]23C)c(Br)c1 assay_target="Rat Prostatic 5α-reductase" reported_value="> 8.00"
compound=CC(C)CC(=O)OC[C@H]1CC[C@H]2[C@@H]3CNC4=CC(=O)CC[C@]4(C)[C@H]3CC[C@]12C assay_target="Rat Prostatic 5α-reductase" reported_value="7.00 to 8.00"
compound=Cc1cc(C(C)(C)C)cc(C)c1NC(=O)[C@H]1CC[C@H]2[C@@H]3CNC4=CC(=O)CC[C@]4(C)[C@H]3CC[C@]12C assay_target="Rat Prostatic 5α-reductase" reported_value="7.00 to 8.00"
compound="CC12CCC(=O)C=C1NCC1C2CCC2(C)C(C(=O)NC(c3ccccc3)c3ccc(Cl)cc3)CCC12 (stereo not drawn)" assay_target="Rat Prostatic 5α-reductase" reported_value="> 8.00"
compound=C[C@]12CC[C@H]3[C@@H](CNC4=CC(=O)CC[C@@]43C)[C@@H]1CC[C@@H]2C(=O)Nc1ccc2c(c1)CCC2 assay_target="Rat Prostatic 5α-reductase" reported_value="< 7.00"
compound=Cc1cc(C)c(NC(=O)[C@H]2CC[C@H]3[C@@H]4CNC5=CC(=O)CC[C@]5(C)[C@H]4CC[C@]23C)c(C)c1 assay_target="Rat Prostatic 5α-reductase" reported_value="7.00 to 8.00"
compound=C[C@]12CC[C@H]3[C@@H](CNC4=CC(=O)CC[C@@]43C)[C@@H]1CC[C@@H]2C(=O)NCCC(c1ccccc1)c1ccccc1 assay_target="Rat Prostatic 5α-reductase" reported_value="> 8.00"
compound="CC12CCC(=O)C=C1NCC1C2CCC2(C)C(C(=O)Nc3ccccc3C(F)(F)F)CCC12 (stereo not drawn)" assay_target="Rat Prostatic 5α-reductase" reported_value="> 8.00"
compound=C[C@]12CC[C@H]3[C@@H](CNC4=CC(=O)CC[C@@]43C)[C@@H]1CC[C@@H]2C(=O)Nc1cc(C(F)(F)F)ccc1Cl assay_target="Rat Prostatic 5α-reductase" reported_value="< 7.00"
compound=CC(C)(CO)NC(=O)[C@H]1CC[C@H]2[C@@H]3CNC4=CC(=O)CC[C@]4(C)[C@H]3CC[C@]12C assay_target="Rat Prostatic 5α-reductase" reported_value="< 7.00"
compound=CC(C)Oc1ccc(C(=O)[C@H]2CC[C@H]3[C@@H]4CNC5=CC(=O)CC[C@]5(C)[C@H]4CC[C@]23C)cc1 assay_target="Rat Prostatic 5α-reductase" reported_value="7.00 to 8.00"
compound="Cc1ccc(CCNC(=O)C2CCC3C4CNC5=CC(=O)CCC5(C)C4CCC23C)cc1 (stereo not drawn)" assay_target="Rat Prostatic 5α-reductase" reported_value="> 8.00"
compound=CC(C)(Cc1ccc(F)cc1)NC(=O)[C@H]1CC[C@H]2[C@@H]3CNC4=CC(=O)CC[C@]4(C)[C@H]3CC[C@]12C assay_target="Rat Prostatic 5α-reductase" reported_value="> 8.00"
